Experiment: Stability of compound in rat microsomes assessed as half-life
Assay type: ADME, Microsome
quantityKind: half-life

CC1=C(C(=O)Nc2ccccc2O)C(c2ccccc2Cl)N=C(Nc2nc3ccccc3o2)N1 (stereo not drawn)
17.9 min
CC1=C(C(=O)NCc2cnn(CC(F)(F)F)c2)C(c2ccc(C)cc2Cl)N=C(Nc2nc3ccc(F)c(N)c3o2)N1 (stereo not drawn)
18.7 min
CC1=C(C(=O)Nc2cc(C(=O)O)ccn2)C(c2ccccc2Cl)N=C(Nc2nc3c(N)cccc3o2)N1 (stereo not drawn)
> 30 min
COC(=O)c1ccnc(NC(=O)C2=C(C)NC(Nc3nc4ccccc4o3)=N[C@@H]2c2ccccc2Cl)c1
25.6 min

(Q) Any idea what its half-life is? The compound is CCn1cc(CNC(=O)C2=C(C)NC(Nc3nc4ccc(F)cc4o3)=NC2c2ccc(C)cc2Cl)cn1 (stereo not drawn)
(A) 9.22 min

(Q) Any idea what its half-life is? The compound is CC1=C(C(=O)Nc2nncs2)C(c2cc(Cl)ccc2Cl)N=C(Nc2nc3ccccc3o2)N1 (stereo not drawn)
(A) > 30 min

(Q) Any idea what its half-life is? The compound is CC1=C(C(=O)Nc2cc(C(=O)O)ccn2)C(c2ccc(-n3cccn3)cc2Cl)N=C(Nc2nc3ccc(F)cc3o2)N1 (stereo not drawn)
(A) > 30 min

(Q) Any idea what its half-life is? The compound is CC1=C(C(=O)NCc2cnn(C)c2)C(c2ccccc2Cl)N=C(Nc2nc3cccc(N)c3o2)N1 (stereo not drawn)
(A) > 30 min

(Q) Any idea what its half-life is? The compound is COc1ccc2oc(NC3=NC(c4ccccc4Cl)C(C(=O)Nc4nnc(-c5cccnc5)s4)=C(C)N3)nc2c1 (stereo not drawn)
(A) > 30 min

* * *

Test: Kinetic aqueous solubility of the compound
Type: physicochemical
Conditions: buffer; read-out: Kinetic_solubility
Recorded measurements of solubility kinetic, one per entry

COc1ccc2nc(NC3=NC(c4ccccc4Cl)C(C(=O)Nc4nnc(-c5cccnc5)s4)=C(C)N3)oc2c1 (configuration not stated)
< 1 µg/mL
CC1=C(C(=O)NCc2cnn(C)c2)C(c2ccccc2Cl)N=C(Nc2nc3cccc(N)c3o2)N1 (configuration not stated)
> 72 µg/mL
CC1=C(C(=O)Nc2cccc(C(=O)O)c2)C(c2ccccc2Cl)N=C(Nc2nc3ccccc3o2)N1 (configuration not stated)
59.1 µg/mL
COC(=O)C1=C(C(F)(F)F)NC(Nc2nc3ccccc3o2)=NC1c1ccccc1Cl (configuration not stated)
2.65 µg/mL
O=C1NCCC2=C1C(c1ccccc1Cl)N=C(Nc1nc3ccccc3o1)N2 (configuration not stated)
< 1 µg/mL

(Q) Any idea what its solubility kinetic is? The compound is CCn1cc(CNC(=O)C2=C(C)NC(Nc3nc4cccc(N)c4o3)=NC2c2ccc(C)cc2Cl)cn1 (configuration not stated)
(A) 2.43 µg/mL

(Q) Any idea what its solubility kinetic is? The compound is CC1=C(C(=O)NCc2ccc(Cl)cc2)C(c2ccccc2Cl)N=C(Nc2nc3ccccc3o2)N1 (configuration not stated)
(A) < 1 µg/mL

* * *

Assay: Inhibition of recombinant mouse GALK1 using ATP as substrate incubated for 1 hr and measured by Kinase-Glo assay
Settings: read-out: IC50
quantityKind: IC50 (µM)
Number only, in µM; omit the unit.

Past entries and their recorded results:
CC1=C(C(=O)Nc2cc(CO)ccn2)C(c2ccccc2Cl)N=C(Nc2nc3ccc(F)cc3o2)N1 (stereo not drawn)
10.9
COc1ccc2oc(NC3=NC(c4ccccc4Cl)C(C(=O)Nc4cc(C(=O)O)ccn4)=C(C)N3)nc2c1 (stereo not drawn)
12.2

--- query ---
(Q) Any idea what its IC50 is? The molecule is CC1=C(C(=O)Nc2cc(B(O)O)ccn2)C(c2ccc(C)cc2Cl)N=C(Nc2nc3ccc(F)cc3o2)N1 (stereo not drawn)
(A) 10.9

* * *

Assay: Kinetic aqueous solubility of the compound
Assay type: physicochemical
Conditions: buffer; read-out: Kinetic_solubility
Recorded measurements of solubility kinetic, one per entry

CC1=C(C(=O)N(C)c2ccccc2)C(c2ccccc2Cl)N=C(Nc2nc3ccccc3o2)N1 (stereo not given)
< 1 µg/mL
CC1=C(C(=O)NCc2cccnc2)C(c2ccccc2Cl)N=C(Nc2nc3ccccc3o2)N1 (stereo not given)
< 1 µg/mL
COC(=O)c1cc(NC(=O)C2=C(C)NC(Nc3nc4ccccc4o3)=NC2c2ccccc2Cl)ccn1 (stereo not given)
< 1 µg/mL
CC1=C(C(=O)Nc2cc(C#N)ccn2)C(c2ccccc2Cl)N=C(Nc2nc3ccc(F)cc3o2)N1 (stereo not given)
< 1 µg/mL
CCOC(=O)N1C(Nc2nc3ccccc3o2)=NC(c2ccccc2Cl)C(C(=O)Nc2cc(C(=O)O)ccn2)=C1C (stereo not given)
> 85 µg/mL
CC1=C(C(=O)Nc2cc(C(=O)O)ccn2)C(c2ccc(C#N)cc2Cl)N=C(Nc2nc3ccc(F)cc3o2)N1 (stereo not given)
> 81 µg/mL
CC1=C(C(=O)Nc2cc(C(=O)O)ccn2)C(c2ccc(C)cc2Cl)N=C(Nc2nc3cccc(N)c3o2)N1 (racemic)
> 78 µg/mL
CC1=C(C(=O)Nc2nncs2)C(c2ccccc2Cl)N=C(Nc2nc3ccccc3o2)N1 (stereo not given)
< 1 µg/mL

(Q) Any idea what its solubility kinetic is? The compound is CC1=C(C(=O)Nc2cc(C(=O)O)ccn2)C(c2ccccc2Cl)N=C(Nc2nc3cc(F)ccc3o2)N1 (stereo not given)
(A) < 10000 µg/mL

(Q) Any idea what its solubility kinetic is? The compound is CC1=C(C(=O)Nc2cc(C(=O)O)ccn2)C(c2cc(C(=O)O)ccc2Cl)N=C(Nc2nc3ccc(F)cc3o2)N1 (stereo not given)
(A) > 83 µg/mL

(Q) Any idea what its solubility kinetic is? The compound is CC1=C(C(=O)NCc2cnn(Cc3ccccc3)c2)C(c2ccc(C)cc2Cl)N=C(Nc2nc3cccc(N)c3o2)N1 (stereo not given)
(A) < 1 µg/mL

(Q) Any idea what its solubility kinetic is? The compound is CC1=C(C(=O)Nc2ccc(N(C)C)cc2)C(c2ccccc2Cl)N=C(Nc2nc3ccccc3o2)N1 (stereo not given)
(A) < 1 µg/mL

(Q) Any idea what its solubility kinetic is? The compound is CC1=C(C(=O)Nc2nnc(C)s2)C(c2ccccc2Cl)N=C(Nc2nc3ccccc3o2)N1 (stereo not given)
(A) < 1 µg/mL

(Q) Any idea what its solubility kinetic is? The compound is CC1=C(C(=O)Nc2cccc(-c3cn[nH]c3)c2)C(c2ccccc2Cl)N=C(Nc2nc3ccccc3o2)N1 (stereo not given)
(A) < 1 µg/mL

(Q) Any idea what its solubility kinetic is? The compound is CC1=C(C(=O)Nc2nnc(-c3cccnc3)s2)C(c2ccccc2Cl)N=C(Nc2nc3cc(F)ccc3o2)N1 (stereo not given)
(A) < 1 µg/mL

* * *

Assay: Kinetic aqueous solubility of the compound
Type: physicochemical
Conditions: buffer; read-out: Kinetic_solubility
We use 2 µg/mL as the dividing line for solubility kinetic: on or above the line is Criterion met, below is Criterion not met.

CC1=C(C(=O)Nc2ccc(N3CCNCC3)cc2)C(c2ccccc2Cl)N=C(Nc2nc3ccccc3o2)N1 (stereo unspecified)
Criterion met
CC1=C(C(=O)Nc2cc(C(=O)O)ccn2)C(c2ccccc2Cl)N=C(Nc2nc3ccc(F)cc3o2)N1 (racemic)
Criterion met
CC1=C(C(=O)NCc2ccc(F)cc2)C(c2ccccc2Cl)N=C(Nc2nc3ccccc3o2)N1 (stereo unspecified)
Criterion not met
CC1=C(C(=O)NCc2cnn(C)c2)C(c2ccc(C)cc2Cl)N=C(Nc2nc3ccc(F)c(N)c3o2)N1 (stereo unspecified)
Criterion not met
CC1=C(C(=O)Nc2nnc(-c3cccnc3)s2)C(c2ccccc2Cl)N=C(Nc2nc3cc(C)ccc3o2)N1 (stereo unspecified)
Criterion not met

(Q) Check this molecule for solubility kinetic at or above 2 µg/mL: CC1=C(C(=O)NCc2cnn(C)c2)C(c2ccc(C)cc2Cl)N=C(Nc2nc3ccc(F)c(C(=O)O)c3o2)N1 (stereo unspecified)
(A) Criterion met

(Q) Check this molecule for solubility kinetic at or above 2 µg/mL: CC1=C(C(=O)Nc2ccc(CO)cn2)C(c2ccccc2Cl)N=C(Nc2nc3ccc(F)cc3o2)N1 (stereo unspecified)
(A) Criterion not met

(Q) Check this molecule for solubility kinetic at or above 2 µg/mL: CC1=C(C(=O)Nc2cc(C(=O)O)ccn2)[C@H](c2ccccc2Cl)N=C(Nc2nc3ccccc3o2)N1
(A) Criterion met

(Q) Check this molecule for solubility kinetic at or above 2 µg/mL: CC1=C(C(=O)Nc2cc(C(=O)O)ccn2)C(c2ccc(C)cc2Cl)N=C(Nc2ncc(-c3ccccc3)o2)N1 (stereo unspecified)
(A) Criterion met

(Q) Check this molecule for solubility kinetic at or above 2 µg/mL: CC1=C(C(=O)Nc2cc(C(=O)O)ccn2)C(c2ccc(-c3ccccc3)cc2Cl)N=C(Nc2nc3ccc(F)cc3o2)N1 (stereo unspecified)
(A) Criterion not met

* * *

Recorded measurements of solubility kinetic, one per entry
Test: Kinetic aqueous solubility of the compound
Assay type: physicochemical
Conditions: buffer; read-out: Kinetic_solubility

Past entries and their recorded results:
CCOC(=O)c1nnc(NC(=O)C2=C(C)NC(Nc3nc4ccccc4o3)=NC2c2ccccc2Cl)s1 (centres undefined)
< 1 µg/mL
CC1=C(C(=O)Nc2nncs2)C(c2ccc(Cl)cc2Cl)N=C(Nc2nc3ccccc3o2)N1 (centres undefined)
< 1 µg/mL
CC1=C(C(=O)Nc2nncs2)C(c2cc(Cl)ccc2Cl)N=C(Nc2nc3ccccc3o2)N1 (centres undefined)
< 1 µg/mL

--- query ---
(Q) Any idea what its solubility kinetic is? The compound is CC1=C(C(=O)Nc2cc(C(=O)O)ccn2)[C@@H](c2ccc(C)cc2Cl)N=C(Nc2nc3cccc(N)c3o2)N1
(A) > 78 µg/mL
